# key: entry, value: current as % of control at 0.3 µM
molecular target: α1β1R41N GABAA receptors (Rattus norvegicus, UniProt P15431+P62813, R66N); construct: expressed in transfected cells; host or cells: Xenopus laevis oocytes, mRNA injected; experiment: Two electrode voltage clamp in Xenopus laevis oocytes, mutant α1β1R41N; assay type: cell-based; conditions: 300nM, read-out: % of control current at EC3-5
Sequence (P62813 28-455): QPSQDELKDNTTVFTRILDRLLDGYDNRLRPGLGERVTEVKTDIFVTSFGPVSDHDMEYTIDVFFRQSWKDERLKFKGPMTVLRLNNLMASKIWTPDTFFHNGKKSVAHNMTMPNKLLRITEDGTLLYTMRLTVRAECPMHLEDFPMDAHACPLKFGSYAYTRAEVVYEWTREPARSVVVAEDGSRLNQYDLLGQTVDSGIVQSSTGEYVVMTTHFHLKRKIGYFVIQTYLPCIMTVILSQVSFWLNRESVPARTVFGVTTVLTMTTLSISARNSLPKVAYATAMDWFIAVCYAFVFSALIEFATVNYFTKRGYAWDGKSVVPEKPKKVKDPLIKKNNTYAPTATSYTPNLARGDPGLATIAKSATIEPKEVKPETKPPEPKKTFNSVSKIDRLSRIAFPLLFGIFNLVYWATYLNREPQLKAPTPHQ
Sequence (P15431 26-474 R66N): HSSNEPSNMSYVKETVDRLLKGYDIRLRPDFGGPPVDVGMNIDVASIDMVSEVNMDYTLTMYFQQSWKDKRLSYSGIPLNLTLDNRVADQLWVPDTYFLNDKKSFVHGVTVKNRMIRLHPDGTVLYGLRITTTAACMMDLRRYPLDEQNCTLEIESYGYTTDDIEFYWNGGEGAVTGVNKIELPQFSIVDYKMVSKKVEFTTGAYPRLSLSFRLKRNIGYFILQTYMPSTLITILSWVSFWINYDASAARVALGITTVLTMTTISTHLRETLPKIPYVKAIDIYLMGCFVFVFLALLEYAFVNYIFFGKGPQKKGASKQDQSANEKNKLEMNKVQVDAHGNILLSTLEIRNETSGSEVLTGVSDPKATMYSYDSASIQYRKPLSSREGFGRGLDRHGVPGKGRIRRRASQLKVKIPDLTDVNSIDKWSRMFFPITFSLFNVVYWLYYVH

- Compound: "COc1ccc2[nH]cc3c(=O)n(-c4ccc(C)cc4)nc-3c2c1 [Compound 5]"
  current as % of control at 0.3 µM [%]: 85
- Compound: "COc1ccc2[nH]cc3c(=O)n(-c4ccc(N)cc4)nc-3c2c1 [Compound 6]"
  current as % of control at 0.3 µM [%]: 90
- Compound: "COc1ccc(-n2nc3c4cc(Cl)ccc4[nH]cc-3c2=O)cc1 [Compound 1]"
  current as % of control at 0.3 µM [%]: 100
- Compound: "Cc1ccc(-n2nc3c4cc(Cl)ccc4[nH]cc-3c2=O)cc1 [Compound 2]"
  current as % of control at 0.3 µM [%]: 62
- Compound: "Nc1ccc(-n2nc3c4cc(Cl)ccc4[nH]cc-3c2=O)cc1 [Compound 3]"
  current as % of control at 0.3 µM [%]: 65
- Compound: "COc1ccc(-n2nc3c4cc(OC)ccc4[nH]cc-3c2=O)cc1 [Compound 4]"
  current as % of control at 0.3 µM [%]: 85
